Field: protease stability score. Provide a value for each of the sequences that follow.
assay: protease stability score; higher = more stable; yeast display proteolysis, trypsin and chymotrypsin;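 note: log10 excess protease needed over predicted unfolded state with 0 meaning unfolded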
# respond with the number and nothing more

query: Please give the measured protease stability score for this sequence: "EEDKAKEAKEIWDKNNERDLRKKADKDARADVGDKKVHGMETAVQMWSKVRQHVDHVQYHDLKIQGETIRIDFVLHWNGRTVRAQVEFKVSNGQLVDFKLKFTDPDQERKLHEMQK"
result: 0.123

query: Param item = "DEKKVQEVAKDALKVDLQGDVEKMKKLGKPDVTFQLGDQEVHGPDDLKKYYDKVKRLGEEIHVKKVKVEGDKMQAHYELRVAGKQATVTVEVTVKDEKVEEARAEMTEKYKKALEEG" ; retrieve measured protease stability score.
result: -0.154

query: Look up protease stability score for this sequence: "DEQWLNRLNRVFEHNNEEDLIKNMDPNVRVEIGDKRVRGRHKVKEALDRLKEEADHLQLKSVHVQGDKVSATMEMVVNGKHVQMTVTIEFTNGRIKNQRYKATDEKDKKVINDIMG"
result: 0.34
